The values you see were collected from ChEMBL document CHEMBL1143099.

# Target Under Test: Melanocortin receptor 4 (Rattus norvegicus, UniProt P70596)
# Sequence (P70596 whole entry): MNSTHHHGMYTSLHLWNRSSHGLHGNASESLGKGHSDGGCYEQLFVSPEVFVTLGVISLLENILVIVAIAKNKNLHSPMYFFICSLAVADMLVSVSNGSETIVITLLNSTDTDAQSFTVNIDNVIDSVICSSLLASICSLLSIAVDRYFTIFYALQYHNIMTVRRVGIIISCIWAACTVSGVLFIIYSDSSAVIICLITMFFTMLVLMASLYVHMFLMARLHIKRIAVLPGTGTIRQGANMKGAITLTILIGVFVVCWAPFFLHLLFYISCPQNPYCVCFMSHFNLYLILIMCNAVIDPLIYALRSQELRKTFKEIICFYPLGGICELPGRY
# Protocol Text: Agonist activity at rat MC4R expressed in CHO cells assessed as cAMP release
pEC50: −log10 of the molar value.
Measurement Name: pEC50

1. CC[C@H](NC(C)=O)c1cc(Cl)ccc1C1CCN(C(=O)[C@@H]2CN(C(C)(C)C)C[C@H]2c2ccc(Cl)cc2F)CC1
2. CC[C@H](NC(C)=O)c1cc(Cl)ccc1C1CCN(C(=O)[C@@H]2CN(C(C)(C)C)C[C@H]2c2ccc(Br)cc2F)CC1
3. CC[C@H](NC(C)=O)c1cc(Cl)ccc1C1CCN(C(=O)[C@H]2CN(C(C)(C)C)C[C@@H]2c2ccc(Br)cc2F)CC1
Which order do these fall in by pEC50? Give them lowest to highest. Answer by naming the labels in the order asked.
3, 1, 2

====

# Protocol Text: Binding affinity to human MC1bR
Measurement Name: IC50 (µM)

As a guide, the following entries are already answered.
CC[C@H](NC(C)=O)c1cc(Cl)ccc1C1CCN(C(=O)[C@@H]2CN(C(C)(C)C)C[C@H]2c2ccc(Br)cc2F)CC1; 0.695
CC[C@H](NC(C)=O)c1cc(Cl)ccc1C1CCN(C(=O)[C@@H]2CN(C(C)(C)C)C[C@H]2c2ccc(OC)cc2F)CC1; 0.312
CC[C@H](NC(C)=O)c1cc(Cl)ccc1C1CCN(C(=O)[C@@H]2CN(C(C)(C)C)C[C@H]2c2ccc3ccccc3c2)CC1; 6.59
CC[C@H](NC(C)=O)c1cc(Cl)ccc1C1CCN(C(=O)[C@H]2CN(C(C)(C)C)C[C@@H]2c2ccc(Br)cc2F)CC1; 174
CC[C@H](NC(C)=O)c1cc(Cl)ccc1C1CCN(C(=O)[C@H]2CN(C(C)(C)C)C[C@@H]2c2ccc(Cl)cc2Cl)CC1; 20

1. CC[C@H](NC(C)=O)c1cc(Cl)ccc1C1CCN(C(=O)[C@@H]2CN(C(C)(C)C)C[C@H]2c2ccc(Cl)cc2F)CC1
2. CC[C@H](NC(C)=O)c1cc(Cl)ccc1C1CCN(C(=O)[C@H]2CN(C(C)(C)C)C[C@@H]2c2ccc(C(F)(F)F)cc2)CC1
Between 1 and 2 , which one shows the smaller IC50 number? Please identify the chosen entry by its label.
1

====

# Target Under Test: Melanocortin receptor 3 (Homo sapiens)
# Sequence (P41968 whole entry): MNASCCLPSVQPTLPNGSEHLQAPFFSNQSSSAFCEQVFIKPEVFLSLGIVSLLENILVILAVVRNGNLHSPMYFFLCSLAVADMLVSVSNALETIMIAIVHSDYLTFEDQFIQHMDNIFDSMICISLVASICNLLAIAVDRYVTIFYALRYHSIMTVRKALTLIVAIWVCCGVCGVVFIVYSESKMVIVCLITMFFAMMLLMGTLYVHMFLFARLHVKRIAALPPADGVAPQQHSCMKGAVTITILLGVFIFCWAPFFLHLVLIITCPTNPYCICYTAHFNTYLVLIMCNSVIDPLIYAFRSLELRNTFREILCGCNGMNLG
# Protocol Text: Agonist activity at human MC3R expressed in CHO cells assessed as cAMP release
Measurement Name: EC50 (nM)

Look over these answered cases.
CC[C@H](NC(C)=O)c1cc(Cl)ccc1C1CCN(C(=O)[C@@H]2CN(C(C)(C)C)C[C@H]2c2ccc(Cl)cc2F)CC1; 250
CC[C@H](NC(C)=O)c1cc(Cl)ccc1C1CCN(C(=O)[C@@H]2CN(C(C)(C)C)C[C@H]2c2ccc(Br)cc2F)CC1; 97.4

a. CC[C@H](NC(C)=O)c1cc(Cl)ccc1C1CCN(C(=O)[C@H]2CN(C(C)(C)C)C[C@@H]2c2ccc(Br)cc2F)CC1
b. CC[C@H](NC(C)=O)c1cc(Cl)ccc1C1CCN(C(=O)[C@@H]2CN(C(C)(C)C)C[C@H]2c2ccc(OC)cc2F)CC1
Consider a and b . Which of these has its EC50 at a higher number? State your choice using its label.
a

====

Melanocortin receptor 3 (Homo sapiens): recorded pIC50 for assorted molecules
pIC50: −log10 of the molar value.
Measurement Name: pIC50

a. CC[C@H](NC(C)=O)c1cc(Cl)ccc1C1CCN(C(=O)[C@@H]2CN(C(C)(C)C)C[C@H]2c2ccc(OC)cc2F)CC1
b. CC[C@H](NC(C)=O)c1cc(Cl)ccc1C1CCN(C(=O)[C@@H]2CN(C(C)(C)C)C[C@H]2c2ccc(Br)cc2F)CC1
Between a and b , which one shows the larger pIC50 value? Write down the label attached to your selection.
b
(b: 5.98, a: 5.53)

====

# Target Under Test: Melanocortin receptor 4 (Homo sapiens)
# Protocol Text: Agonist activity at human MC4R expressed in CHO cells assessed as cAMP release at 10 uM relative to alpha-MSH
# Format: functional, cell-based
Measurement Name: Activity (%)

CC[C@H](NC(C)=O)c1cc(Cl)ccc1C1CCN(C(=O)[C@H]2CN(C(C)(C)C)C[C@@H]2c2ccc(Cl)cc2Cl)CC1; 1

P. CC[C@H](NC(C)=O)c1cc(Cl)ccc1C1CCN(C(=O)[C@H]2CN(C(C)(C)C)C[C@@H]2c2ccc(F)cc2Cl)CC1
Q. CC[C@H](NC(C)=O)c1cc(Cl)ccc1C1CCN(C(=O)[C@H]2CN(C(C)(C)C)C[C@@H]2c2ccc(C(F)(F)F)cc2)CC1
R. CC[C@H](NC(C)=O)c1cc(Cl)ccc1C1CCN(C(=O)[C@H]2CN(C(C)(C)C)C[C@@H]2c2ccc(C(F)(F)F)cc2F)CC1
Sort (3 compounds) by Activity: min first. Provide the ranking by listing each label in its place in the requested order.
Q, R, P
(Q: 1%, R: 5%, P: 10%)

====

# Target Under Test: Melanocortin receptor 4 (Homo sapiens)
# Protocol Text: Agonist activity at human MC4R expressed in CHO cells assessed as cAMP release
# Type: functional, cell-based
Measurement Name: EC50 (nM)

Reference set (5 entries):
CC[C@H](NC(C)=O)c1cc(Cl)ccc1C1CCN(C(=O)[C@H]2CN(C(C)(C)C)C[C@@H]2c2ccc(Br)cc2F)CC1; 13.4
CC[C@H](NC(C)=O)c1cc(Cl)ccc1C1CCN(C(=O)[C@@H]2CN(C(C)(C)C)C[C@H]2c2ccc(F)cc2F)CC1; 17.9
CC[C@H](NC(C)=O)c1cc(Cl)ccc1C1CCN(C(=O)[C@@H]2CN(C(C)(C)C)C[C@H]2c2ccc(F)cc2Cl)CC1; 215
CC[C@H](NC(C)=O)c1cc(Cl)ccc1C1CCN(C(=O)[C@H]2CN(C(C)(C)C)C[C@@H]2c2cc(F)c(F)cc2F)CC1; 3700
CC[C@H](NC(C)=O)c1cc(Cl)ccc1C1CCN(C(=O)[C@@H]2CN(C(C)(C)C)C[C@H]2c2ccc(Br)cc2F)CC1; 2.1

a. CC[C@H](NC(C)=O)c1cc(Cl)ccc1C1CCN(C(=O)[C@@H]2CN(C(C)(C)C)C[C@H]2c2ccc3ccccc3c2)CC1
b. CC[C@H](NC(C)=O)c1cc(Cl)ccc1C1CCN(C(=O)[C@H]2CN(C(C)(C)C)C[C@@H]2c2ccc(OC)cc2F)CC1
c. CC[C@H](NC(C)=O)c1cc(Cl)ccc1C1CCN(C(=O)[C@@H]2CN(C(C)(C)C)C[C@H]2c2ccc(Cl)cc2F)CC1
Highest EC50 first, then in falling order down to the smallest. The response must list the labels following the requested ordering.
b, a, c
(b: 245 nM, a: 120 nM, c: 2.8 nM)

====

# Target Under Test: Melanocortin receptor 4 (Homo sapiens, UniProt P32245)
# Sequence (P32245 whole entry): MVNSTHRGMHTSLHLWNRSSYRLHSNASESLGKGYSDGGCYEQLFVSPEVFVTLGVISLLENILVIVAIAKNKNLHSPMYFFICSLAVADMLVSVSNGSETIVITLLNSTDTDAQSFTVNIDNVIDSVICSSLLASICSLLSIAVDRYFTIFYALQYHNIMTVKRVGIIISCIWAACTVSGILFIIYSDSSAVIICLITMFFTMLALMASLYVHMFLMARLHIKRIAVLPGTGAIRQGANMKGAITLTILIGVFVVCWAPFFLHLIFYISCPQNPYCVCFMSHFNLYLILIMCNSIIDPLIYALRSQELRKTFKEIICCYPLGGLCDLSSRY
# Protocol Text: Agonist activity at human MC4R expressed in CHO cells assessed as cAMP release relative to alpha-MSH
# Type: functional, cell-based
Measurement Name: %max (%)

CC[C@H](NC(C)=O)c1cc(Cl)ccc1C1CCN(C(=O)[C@H]2CN(C(C)(C)C)C[C@@H]2c2ccc(OC)cc2F)CC1; 34
CC[C@H](NC(C)=O)c1cc(Cl)ccc1C1CCN(C(=O)[C@@H]2CN(C(C)(C)C)C[C@H]2c2ccc(OC)cc2F)CC1; 100
CC[C@H](NC(C)=O)c1cc(Cl)ccc1C1CCN(C(=O)[C@@H]2CN(C(C)(C)C)C[C@H]2c2ccc(Cl)cc2Cl)CC1; 48
CC[C@H](NC(C)=O)c1cc(Cl)ccc1C1CCN(C(=O)[C@H]2CN(C(C)(C)C)C[C@@H]2c2ccc(Cl)cc2F)CC1; 45
CC[C@H](NC(C)=O)c1cc(Cl)ccc1C1CCN(C(=O)[C@@H]2CN(C(C)(C)C)C[C@H]2c2ccc3ccccc3c2)CC1; 47

I. CC[C@H](NC(C)=O)c1cc(Cl)ccc1C1CCN(C(=O)[C@@H]2CN(C(C)(C)C)C[C@H]2c2ccc(Cl)cc2F)CC1
II. CC[C@H](NC(C)=O)c1cc(Cl)ccc1C1CCN(C(=O)[C@H]2CN(C(C)(C)C)C[C@@H]2c2ccc(Br)cc2F)CC1
Pick one: I or II . Which one has the lower reported %max? Give the label under which the chosen entry appears.
II

a. CC[C@H](NC(C)=O)c1cc(Cl)ccc1C1CCN(C(=O)[C@@H]2CN(C(C)(C)C)C[C@H]2c2cc(F)c(F)cc2F)CC1
b. CC[C@H](NC(C)=O)c1cc(Cl)ccc1C1CCN(C(=O)[C@H]2CN(C(C)(C)C)C[C@@H]2c2ccc3ccccc3c2)CC1
Compare a and b and name the one whose reported %max is smaller. Label of pick, please.
b
(b: 57%, a: 93%)

====

# Target Under Test: Melanocortin receptor 5 (Homo sapiens, UniProt P33032)
# Sequence (P33032 whole entry): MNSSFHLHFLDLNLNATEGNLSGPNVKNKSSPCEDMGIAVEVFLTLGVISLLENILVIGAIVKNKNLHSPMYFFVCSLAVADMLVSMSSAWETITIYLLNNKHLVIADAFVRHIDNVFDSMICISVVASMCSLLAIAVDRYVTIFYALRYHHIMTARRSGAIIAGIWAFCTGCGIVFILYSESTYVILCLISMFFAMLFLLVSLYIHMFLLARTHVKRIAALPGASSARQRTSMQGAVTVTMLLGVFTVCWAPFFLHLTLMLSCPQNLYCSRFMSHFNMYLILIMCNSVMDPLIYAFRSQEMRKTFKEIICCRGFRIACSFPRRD
# Protocol Text: Agonist activity at human MC5R expressed in CHO cells assesses as cAMP release
Measurement Name: EC50 (nM)

CC[C@H](NC(C)=O)c1cc(Cl)ccc1C1CCN(C(=O)[C@H]2CN(C(C)(C)C)C[C@@H]2c2ccc(Cl)cc2Cl)CC1; 1600
CC[C@H](NC(C)=O)c1cc(Cl)ccc1C1CCN(C(=O)[C@H]2CN(C(C)(C)C)C[C@@H]2c2ccc(Br)cc2F)CC1; 455

I. CC[C@H](NC(C)=O)c1cc(Cl)ccc1C1CCN(C(=O)[C@@H]2CN(C(C)(C)C)C[C@H]2c2ccc(Cl)cc2F)CC1
II. CC[C@H](NC(C)=O)c1cc(Cl)ccc1C1CCN(C(=O)[C@@H]2CN(C(C)(C)C)C[C@H]2c2ccc3ccccc3c2)CC1
III. CC[C@H](NC(C)=O)c1cc(Cl)ccc1C1CCN(C(=O)[C@@H]2CN(C(C)(C)C)C[C@H]2c2ccc(OC)cc2F)CC1
IV. CC[C@H](NC(C)=O)c1cc(Cl)ccc1C1CCN(C(=O)[C@@H]2CN(C(C)(C)C)C[C@H]2c2ccc(Br)cc2F)CC1
Rank descending by EC50. Please reply with the labels ordered as requested. Many thanks.
II, I, III, IV
